Data provenance is PubChem BioAssay.

Biological target: Dickkopf-related protein 1 (Homo sapiens) (UniProt O94907)
Sequence (O94907 whole entry, looked up): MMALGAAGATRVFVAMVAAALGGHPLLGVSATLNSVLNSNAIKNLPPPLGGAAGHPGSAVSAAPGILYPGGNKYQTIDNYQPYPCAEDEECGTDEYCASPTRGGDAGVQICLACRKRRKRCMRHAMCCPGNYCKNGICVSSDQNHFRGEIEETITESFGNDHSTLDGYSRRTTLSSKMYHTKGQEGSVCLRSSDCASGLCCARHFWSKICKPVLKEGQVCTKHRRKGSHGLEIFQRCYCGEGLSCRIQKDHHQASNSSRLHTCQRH
Experiment: DKK1 binders on small-molecule microarrays, primary screen, biochemical, small-molecule microarray, 635 nm fluorescence scan (AID 1106);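 further: score merges emission near 667 nm with signal to noise over three replicate slides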
Settings: DKK1 binding, higher = more signal
result type: composite z-score

>>> experimental_result("CC(C)c1ccc(NN2C(C(O)C(C)C)C=CC3C(=O)N(c4ccccc4)C(=O)C32)cc1 (stereo unspecified)")
-0.103
>>> experimental_result("C=C(COC)C(=O)CC[C@@H](OC(=O)c1cccnc1)c1cccc(OCCO)c1")
0.284
>>> experimental_result("[N-]=[N+]=NCc1ccccc1C[C@]1(C(=O)N2CCOCC2)N=C(c2ccc(OCCCO)cc2)O[C@H]1c1ccccc1CN=[N+]=[N-]")
-0.275
>>> experimental_result("N#Cc1ccc(C(O)C2C=CC3C(=O)N(c4ccccc4)C(=O)C3N2Nc2ccc([N+](=O)[O-])cc2)cc1 (stereo unspecified)")
-0.274

[in] Requested field: composite z-score. Item: COc1ccccc1CN1C(=O)c2ccccc2[C@](Cc2ccccc2I)(C(=O)NCCCN(C)C)[C@@H]1c1ccc(CO)cc1
[out] 0.0393

[in] Requested field: composite z-score. Item: CCOC(=O)C1=C[C@@H](C(C)(C)C)N(S(=O)(=O)c2ccc(C)cc2)[C@H]1c1ccccc1Cl
[out] 0.0627

[in] Requested field: composite z-score. Item: C=CCN1C(=O)[C@]2(O[C@H](CCn3cc([C@H](O)c4ccccc4)nn3)[C@@H]([Si](C)(C)c3ccc(OC)cc3)[C@@H]2C)c2cc(N3C(=O)c4cccc5cccc3c45)ccc21
[out] -0.857

[in] Requested field: composite z-score. Item: O=C1OCCC=C[C@H]2OC34C=CCN(c5ccc(Cl)cc5)C(=O)[C@H]3N(CCO)C(=O)[C@@H]4C12 (stereo partly specified)
[out] -0.568

[in] Requested field: composite z-score. Item: COc1ccc(C#Cc2ccc3c(c2)[C@]2(C(=O)N3)[C@H](C(=O)Nc3nc4ccccc4s3)[C@H]3C(=O)O[C@H](c4ccccc4)[C@H](c4ccccc4)N3[C@@H]2c2ccc(OCCO)cc2)cc1
[out] 0.629

[in] Requested field: composite z-score. Item: CC(C)C[C@@H]1NC(=O)[C@@H]2C[C@H](C(=O)NCCCC[N+](C)(C)C)[C@H](c3ccc(O)cc3)N2C1=O
[out] 1.79

[in] Requested field: composite z-score. Item: CCCC=C(CCC)[C@@H](NC(=O)c1ccco1)c1ccc(C(=O)OC)cc1
[out] -0.18

###

Molecular target: Homeobox protein Hox-A13 (Mus musculus) (UniProt Q62424)
Sequence (Q62424 whole entry, looked up): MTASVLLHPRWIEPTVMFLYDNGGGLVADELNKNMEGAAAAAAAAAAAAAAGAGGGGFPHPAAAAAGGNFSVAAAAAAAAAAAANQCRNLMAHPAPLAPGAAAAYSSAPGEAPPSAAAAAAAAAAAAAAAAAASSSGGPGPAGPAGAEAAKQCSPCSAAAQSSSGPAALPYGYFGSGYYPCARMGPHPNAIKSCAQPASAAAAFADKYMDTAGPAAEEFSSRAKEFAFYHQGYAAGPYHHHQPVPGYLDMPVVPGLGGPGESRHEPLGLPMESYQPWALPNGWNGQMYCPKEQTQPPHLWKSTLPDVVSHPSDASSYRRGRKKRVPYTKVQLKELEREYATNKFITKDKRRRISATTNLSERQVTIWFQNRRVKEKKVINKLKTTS
Assay: inhibitors of HoxA13-DNA binding, primary screen, biochemical, fluorescence polarization, labeled oligonucleotide (AID 1185)
Settings: 15 min, higher = more signal, called active from +8 up or from −8 down
Each entry below lists one item and its recorded z-score value.
When you answer, write just the number.

Example results:
>>> experimental_result("CC(=O)n1cc(C(O)C2C=CC3C(=O)N(c4ccccc4)C(=O)C3N2Nc2ccccc2F)c2ccccc21 (configuration not stated)")
-4.01
>>> experimental_result("N#Cc1ccc(C(O)C2C=CC3C(=O)N(c4ccccc4)C(=O)C3N2Nc2ccc([N+](=O)[O-])cc2)cc1 (configuration not stated)")
-4.34

[in] Item COc1ccc(C#Cc2ccc3c(c2)[C@]2(C(=O)N3)[C@H](C(=O)Nc3nc4ccccc4s3)[C@H]3C(=O)O[C@H](c4ccccc4)[C@H](c4ccccc4)N3[C@@H]2c2ccc(OCCO)cc2)cc1 with Homeobox protein Hox-A13 (Mus musculus) (UniProt Q62424) - z-score?
[out] 1.71

[in] Item C=CC[C@]1(C(=O)OC)N=C(c2ccc(OCCCO)cc2)O[C@H]1c1ccccc1N=[N+]=[N-] with Homeobox protein Hox-A13 (Mus musculus) (UniProt Q62424) - z-score?
[out] -3.31

[in] Item COc1ccccc1CN1C(=O)c2ccccc2[C@@H](C(=O)NCCCN(C)C)[C@@H]1c1ccc(CO)cc1 with Homeobox protein Hox-A13 (Mus musculus) (UniProt Q62424) - z-score?
[out] 3.27

[in] Item COc1cc(OC)c(C(O)C2C=CC3C(=O)N(c4ccccc4)C(=O)C3N2Nc2ccccc2F)cc1Br (configuration not stated) with Homeobox protein Hox-A13 (Mus musculus) (UniProt Q62424) - z-score?
[out] -1.47

[in] Item CC(C)C[C@@H]1NC(=O)[C@@H]2C[C@H](C(=O)NCCCC[N+](C)(C)C)[C@H](c3ccc(O)cc3)N2C1=O with Homeobox protein Hox-A13 (Mus musculus) (UniProt Q62424) - z-score?
[out] -1.73
